Reference source: patent US20030203857A1

Kindly state Amount of HGF Production for each of the entries shown.
# Tested on: HGF production in MRC-5 cells
# experiment_notes: Enhancing activity for HGF production, MRC-5 cells, HGF ELISA of medium
# Format: cell-based, Human
# experimental_parameters: 100 μM, 24 hours, control = 100%
Your answer should be a plain number; it is taken to be in %.

input: Quick one: Amount of HGF Production of O=c1c(O)c(-c2cc(O)c(O)c(O)c2)oc2cc(O)cc(O)c12 [myricetin] ?
output: 454

input: Entry under review: O=c1c(O)c(-c2ccc(O)c(O)c2)oc2cc(O)cc(O)c12 [quercetin] . Reported Amount of HGF Production?
output: 304

input: Entry O=C(O)c1cc(O)c(O)c(O)c1 [gallic acid] : reported Amount of HGF Production = ?
output: 576

input: Any idea what its Amount of HGF Production is? The compound is O=C(O)/C=C/c1ccc(O)c(O)c1 [caffeic acid]
output: 196

input: Entry O=C(/C=C/c1ccc(O)c(O)c1)O[C@@H]1C[C@](O)(C(=O)O)C[C@@H](O)[C@H]1O [chlorogenic acid] : reported Amount of HGF Production = ?
output: 302
